assay: yeast display, Sf9 membrane polyspecificity reagent, FACS + sequencing; frameworks hold sequencing errors
MEASURED_ATTRIBUTE: polyreactivity (PSR sort gate)

1) QVQLVESGGGLVQAGGSLRISCAASGFIFTGTALGWYRQAPGKERELVAAITWSGGRTYYADSVKGRFTISRDNAKNTVYLQMNSLKPEDTAVYYCNVYFSIAQRYVGGLIAHDNYWGQGTQVTVSS | high polyreactivity
2) QVQLVESGGGLVQAGGSLRLSCAASGRTFYVNAMGWYRQAPGKERELVAAIRYSDGRTYYADSVKGRFTISRDNAKNTVYLQMNSLKPEDTAVYYCAVGSRSWPYDYWGQGTQVTVSS | high polyreactivity

----------
experiment: yeast display, Sf9 membrane polyspecificity reagent, FACS + sequencing; frameworks hold sequencing errors
MEASURED_ATTRIBUTE: polyreactivity (PSR sort gate)

Consider the following illustrative entries.
1) QVQLVESGGCLVQAGGSLRLSCAASGSTLRYYAMGWYRQAPGKERELDARIRSNGGSTYYADSVKGRFTISRDNANNTVYLQMNSLKPEETAVYYCAARTYRGQYYTGFGFGYWGQGSQVTVSS | high polyreactivity
2) QVQLVESGGGLVQAGGSLRLSCAASGRIFSGNAMGWYRQAPGKERELVAAISRGGSTDYADSVKGRFTISRDNAKNTVYLQMNSLKPEDTAVYYCAARVNGKRRRYDYWGQGTQVTVSS | high polyreactivity
3) QVQLVESGGGLVQAGGSLRLSCAASGRIFRWYAMGWYRQAPGKEREIVAAITSSGGSTYYADSVKGRFTISRDNAKNTVYLQMNSLKPEDTAFYYCAALLYLGGSYSRGYYWGQGTQVTVSS | high polyreactivity
4) QVQLVESGGGLDQAGGSLRLICAASGITFFPYAMVWYRQAPGKEKELVAAISSGSSTYYADSVKGRFTISRDNAKNTVYLQMNSLKPEDTAVYYCATRRDLHDRYEYDYWGQGTQVTVSS | low polyreactivity
5) QVQLVESGVGIVQAGGSLRLSCAASGRIFFTYAMVWYRQAPGKERELVASITGSGGSTYYADSVKGRFTISRDNAKNTVYLQMNSLKPEDTAVYYCAAALFRRQLYRKFYYWGQGTQVSVSS | low polyreactivity
6) QVQIVESGGGLVQAGGSLRLSCAASGSTFGGYVMGWYRQAPGKERELVAAIRWRTDSTYYADSVKGRFTISRDNAKNTVYLQMNSLKPEDTAVYYCAAPRGTRVGSHLYYWGQGTQVTVSS | high polyreactivity

The recorded polyreactivity (PSR sort gate) for entry QVQLVESGGGLVQAGGSLRLSCAASGSTFTSYAMGWYRQAPGKERELVAAITSRGGTSYADSVKGRFTISRDNAKNTVYLQMNSLKPEDTAVYYCAARATYKKYPYVKWYDYWGQGPQVTVSS equals high polyreactivity

The recorded polyreactivity (PSR sort gate) for entry QVQLVESGGGLVQAVGSLRLSCAASGIIFRNYAMGWYRQAPGKEREWVAAISRSGGSTYYADSVKGRFTISRDNAKNTCYLQMNSLKPEDTAVYYCNAAYWAYNGFSYLMDYWGQGTQVTVSS equals low polyreactivity

The recorded polyreactivity (PSR sort gate) for entry QVQLVESGGGLVQAGGSLRLSCAASGFIFDSYAMGWYRQAPGKERELVAAISDGSSTYADSVKGRFTISRDNAKNTVYLQMNSLKPEDTAVYYCAAGVSTWWSTYDYWGQGTQVTVSS equals high polyreactivity

The recorded polyreactivity (PSR sort gate) for entry QVQLVESGGGLVQAGGSLRLSCPASGRIFHRNTMGWYRPAPGKERELVAAIRSGSRTYYADSVKGRFTISRDNAKNTVYLQMNSLKPEDKAVYYCATTYGSPRYDYWGQGTQVTVSS equals high polyreactivity

The recorded polyreactivity (PSR sort gate) for entry QVQLVESGGGLVQAGGSLRLSCAASGRIFPKYTMGWYRQAPGKERELVASINSSGRTTYADSVKGRFTITRDNAKNTVYLQMNSLKPEDTAVYYCAKRVFSARGYGYWGQGTQVTVSS equals low polyreactivity

----------
test: yeast display, Sf9 membrane polyspecificity reagent, FACS + sequencing; frameworks hold sequencing errors
MEASURED_ATTRIBUTE: polyreactivity (PSR sort gate)

Consider the following illustrative entries.
1) QVQLVESGGGLVEGGGSLRLSCAASGFTFGRYTMGWYRQATGKERELVAAISWSGGSTYYADSVKGRFTISRDNAKNTVYLQLNSLKQEDTAVYNCATRLKSVSGGYNYWGQGTQVTVSS | high polyreactivity
2) QVQLVESGGGLVQAGGSLRLSCDASGRIFRKYAMGWYRQAPGKERELVAGITWRGTSTYYADSVKGRFTISRDNAKNTVYLPMNSLKPEDTAVYYCAAEWKGYYVHDYWGQGTQVTVSS | high polyreactivity
3) QVQLQESGGGLVQAGGSLLLSCAASGSSYDDTYMGWYRQAPGKERELVATIDSGSTTNYADSVKGRNTISRDNAKYTLYLQMNSLKPEDTAVYYCAAADSHIDYFDYWGQGTQVTVSS | low polyreactivity
4) QVQLVESGGGLVQAGGSLRLSCAASGLIFRTYAMGWYRQAPGKERELVAAISSSGGSTYYADSVKGRFTISRDNAKNTVYLQMNSLKPEDTAVYYCNVGSRRRRYLDRYEYWGQGTQVTVSS | high polyreactivity
5) QVQLVESGGGLVQAGGSLRLSCAASGSIFGVYAMGWYRQAPGKESELVATITWRGGSTYYADSVKGRFTISRDNAKNTVYLQMNSLKPEDTSVYYCNARYKWGYYSRYDYWGQGTQVTVSS | high polyreactivity

The recorded polyreactivity (PSR sort gate) for entry QVQLVESGGGLVQAGGSLRLSCAASGSTFRGYAMGWYRQAPGKERELVAAITFRGGSTYYADSVKGRFTISRDNAKNTVFLQMNSLKPEDTEVYYCYVRIYGYDYWGQGTQVSVSS equals high polyreactivity

The recorded polyreactivity (PSR sort gate) for entry QVQLVESGGGLVHAGGSLRLSCAASGLTFDWYTMGWYRQAPGKERELVATINSGGSTDYADSVKGRFTISRDNAKNTVYLQMNSLKPEDTAVYYCNAEYGYSGVGDDYWGQGTQVTVSS equals low polyreactivity

The recorded polyreactivity (PSR sort gate) for entry QVQLVESGGGLVQAGGSLRLSCAASGSIFFYYAMGWYRQAPGKERELVAAINSDGSTNYADSVKGRFTISRDNAKNTVYLQMNSVKPEDTAVYYCAADYVYYYHEYDYWGQGTQVTVSS equals low polyreactivity

The recorded polyreactivity (PSR sort gate) for entry QVQLVESGGGLVQAGGSLRLSCSASGSTFYYNAMGWYRQAPGKERELVARISRSGGSTYADSVKGRFTISRDNAKNTVYLQMNSLKPEDTAVYYCNAIGYTGPVAYPEYDYWGQGTQVTVSS equals low polyreactivity

The recorded polyreactivity (PSR sort gate) for entry QVQLVESGGGLVQAGGSLRLSCAATGFTFIHYGMGWYRQAPGKERELVAAITWRGDRTYADSVKGRFTISRDNANNTVYLQMNSLKPEDTAVYYCAAVSANQDFDYWGQGTQVTVSS equals high polyreactivity

The recorded polyreactivity (PSR sort gate) for entry QVQLVESGGGLVQAGGSLRLSCAASGSIYGGYAMGWYRQAPGKEREFVAAISRSGSSTYYADSVKGRFTISRDNAKNTVYLQMNSLKPEDTAVYSCAARYAGKAPGYRRYDYWGQGTQVTVSS equals high polyreactivity

----------
test: yeast display, Sf9 membrane polyspecificity reagent, FACS + sequencing; frameworks hold sequencing errors
MEASURED_ATTRIBUTE: polyreactivity (PSR sort gate)

1. QVKLVESAGGLVQARGSLRLSCAGSGITFVRNAMGWYRQAPGKERELVAAISSGGSTYYADSVKGRFTISRDNAKNTVYLQMNSLKPEDTAVYYCNAQIYGRLYRYRWHFYWGQGTQVTVSS | high polyreactivity
2. QVQLVESGGGLVQAGGSLRLSCAASGFTFKRNAMGWYRQAPGKERELVAAITKSGGSTYYADSVKGRFTISRDNAKNTVYLQMNSLQPEDTAVYYCNTVHYYRDYDYWGQGTQVTVSS | high polyreactivity

----------
assay: yeast display, Sf9 membrane polyspecificity reagent, FACS + sequencing; frameworks hold sequencing errors
MEASURED_ATTRIBUTE: polyreactivity (PSR sort gate)

1) QVQLVESGGGLEQAGGSLRLSCAASGITLRVNAMGWYRQAPGKERELVAAITRGTNTYYADSVKGRFTISRDNAKNTVYLQMNSLKPEDTAVYYCAARLPYNAIGYYYWGQGTQVTVSS | low polyreactivity
2) QVQLVESGGGLVQAGGSLRLSCAASGSIFNVYAMGWYRQAPGKERELVAAISDGDGSTFYADSVKGRFTISRDNAKTTVYLQMNSLKPEDTAVYYCAKDYRWDRKFDYWGQGTQVTVSS | low polyreactivity

----------
test: yeast display, Sf9 membrane polyspecificity reagent, FACS + sequencing; frameworks hold sequencing errors
MEASURED_ATTRIBUTE: polyreactivity (PSR sort gate)

1. QVQLVESGGGLVQAGGSLRLSCAASGSTFRYYAMGWYRQAPGKERELVAAITSSGGSTYYADSVKGRFTISRDNAKNTVYLQMNSLKPEDTAVYYCAVAVKNWVKLNYWGQGTQVTVSS | high polyreactivity
2. QVQLVESGGGLVQAGGSLRLSCAASGRTSWPYAMGWYRQAPGKERELVAGISRNGGRTYYADSVKGRFTISRDNAKNTVYLQMNSLKPEDTAVYYCNAYPPSRHDYWGQGTQVTVSS | high polyreactivity
